Catalogue of melting point values

CCCCCCC(NC(=O)CCCC[C@@H]1SC[C@@H]2NC(=O)N[C@@H]21)C(=O)O (mixture of isomers) ... 198.5 °C
CC[C@H](C)[C@H](NC(=O)CCCC[C@@H]1SC[C@@H]2NC(=O)N[C@@H]21)C(=O)O ... 230 to 233 °C

Ask: Report melting point for `CC(C)C[C@H](NC(=O)CCCC[C@@H]1SC[C@@H]2NC(=O)N[C@@H]21)C(=O)O` please.
Result: 209 to 210 °C

----------
method description: Gelation capability of gelators, stable-to-inversion of container method (minimum gelation concentration, gel stability and clarity)
Type: physicochemical
condition parameters: pH 7 (0.08 M MOPSO buffer)
attribute measured: minimum gelation concentration (MGC) (wt %)

CC(C)C[C@H](NC(=O)CCCC[C@@H]1SC[C@@H]2NC(=O)N[C@@H]21)C(=O)O ... 2.8
CCCCCC(NC(=O)CCCC[C@@H]1SC[C@@H]2NC(=O)N[C@@H]21)C(=O)O (stereo partly drawn) [Gelator 10, N-biotinyl-D,L-2-aminoenantic acid] ... 2.0
CCC[C@H](NC(=O)CCCC[C@@H]1SC[C@@H]2NC(=O)N[C@@H]21)C(=O)O ... 2.5
CCCC[C@H](NC(=O)CCCC[C@@H]1SC[C@@H]2NC(=O)N[C@@H]21)C(=O)O ... 1.2
O=C(CCCC[C@@H]1SC[C@@H]2NC(=O)N[C@@H]21)N[C@@H](Cc1ccccc1)C(=O)O ... 3.0

----------
Catalogue of melting point values

Recorded results for 2 compounds are shown here.
CC(C)[C@H](NC(=O)CCCC[C@@H]1SC[C@@H]2NC(=O)N[C@@H]21)C(=O)O ... 215 to 216 °C
O=C(CCCC[C@@H]1SC[C@@H]2NC(=O)N[C@@H]21)N[C@@H](Cc1ccc(O)cc1)C(=O)O ... 259 to 260 °C

Ask: Report melting point for `O=C(CCCC[C@@H]1SC[C@@H]2NC(=O)N[C@@H]21)N[C@@H](Cc1c[nH]c2ccccc12)C(=O)O` please.
Result: 160 to 161 °C

----------
method description: Gelation capability of gelators, stable-to-inversion of container method (minimum gelation concentration, gel stability and clarity)
Assay type: physicochemical
Set-up: key: —: no gel formed
condition parameters: pH 9 (0.025 M sodium tetraborate buffer)
attribute measured: minimum gelation concentration (MGC)

O=C(CCCC[C@@H]1SC[C@@H]2NC(=O)N[C@@H]21)N[C@@H](Cc1ccc(O)cc1)C(=O)O ... —
CSCC[C@H](NC(=O)CCCC[C@@H]1SC[C@@H]2NC(=O)N[C@@H]21)C(=O)O ... —
O=C(CCCC[C@@H]1SC[C@@H]2NC(=O)N[C@@H]21)N[C@@H](Cc1c[nH]c2ccccc12)C(=O)O ... —

----------
method description: Gelation capability of gelators, stable-to-inversion of container method (minimum gelation concentration, gel stability and clarity)
Type: physicochemical
condition parameters: pH 4 (0.05 M phthalate buffer)
Catalogue of minimum gelation concentration (MGC) values
Give a bare numeral; the unit wt % is implied.

CCCC[C@H](NC(=O)CCCC[C@@H]1SC[C@@H]2NC(=O)N[C@@H]21)C(=O)O ... 0.5

Now look at this one.
Ask: Report minimum gelation concentration (MGC) for `O=C(CCCC[C@@H]1SC[C@@H]2NC(=O)N[C@@H]21)N[C@@H](Cc1ccccc1)C(=O)O` please.
Result: 2.0
